Test: Ratio of drug level from brain to blood in MDR1a/b and BCRP1 deficient FVB mouse
Format: ADME, tissue-based
REPORTED_PROPERTY: Kp

(Q) Using the record for COc1cc2c(cc1OC)CN(CCc1ccc(NC(=O)c3cc(O[11CH3])c(OC)cc3NC(=O)c3cnc4ccccc4c3)cc1)CC2 [[11C]TARIQUIDAR] , state its measured Kp.
(A) 14.5

###

Test: Ratio of drug level from brain to blood in BCRP1 deficient FVB mouse
Type: ADME, tissue-based
Conditions: brain and blood
REPORTED_PROPERTY: Kp
Please respond with just the number, no unit label.

(Q) Using the record for COc1cc2c(cc1OC)CN(CCc1ccc(NC(=O)c3cc(O[11CH3])c(OC)cc3NC(=O)c3cnc4ccccc4c3)cc1)CC2 [[11C]TARIQUIDAR] , state its measured Kp.
(A) 1.8

###

Experiment: Ratio of drug level from brain to blood in wild type FVB mouse
Format: ADME, tissue-based
Settings: brain and blood
REPORTED_PROPERTY: Kp
Please respond with just the number, no unit label.

(Q) Using the record for COc1cc2c(cc1OC)CN(CCc1ccc(NC(=O)c3cc(O[11CH3])c(OC)cc3NC(=O)c3cnc4ccccc4c3)cc1)CC2 [[11C]TARIQUIDAR] , state its measured Kp.
(A) 1

###

Assay: Ratio of drug level from brain to blood in MDR1a/b deficient FVB mouse
Assay type: ADME, tissue-based
Details: brain and blood
REPORTED_PROPERTY: Kp

(Q) Using the record for COc1cc2c(cc1OC)CN(CCc1ccc(NC(=O)c3cc(O[11CH3])c(OC)cc3NC(=O)c3cnc4ccccc4c3)cc1)CC2 [[11C]TARIQUIDAR] , state its measured Kp.
(A) 3.4
